Reference for the values: PubChem BioAssay (NCI)

- Tested on: SK-MEL-28 melanoma
- Test name: NCI-60 one-dose screen, 48 h
- Measurement conditions: 10 µM unless noted
The panel holds about 83,000 compounds, 20% with a hit somewhere; the sample as a whole holds those more often. Active and inactive are the calls of the source. How the source made its calls: active means growth percent below 10; inactive means the rest.
Assign a class; possible classes are 1.0 (active), 0.0 (inactive)

Recorded results for 2 compounds are shown here.
Compound	Assigned class
CC(=O)OC[C@@]12Oc3c(cccc3-c3ccc(O)c4c3O[C@]3(COC(C)=O)C(=C4O)C(=O)C[C@H](C)[C@@H]3OC(C)=O)C(O)=C1C(=O)C[C@H](C)[C@@H]2OC(C)=O	1.0
CCCC/C(=C\c1ccc(O)c(O)c1)C(=O)NC(Cc1ccccc1)C(=O)C(=O)NCCc1ccc(OC)cc1 (stereo not drawn)	0.0

Call for entry C=C(C)[C@@H]1CC[C@]2(COCCCNCCCN)CC[C@]3(C)[C@H](CC[C@@H]4[C@@]5(C)CC[C@H](O)C(C)(C)[C@@H]5CC[C@]43C)[C@@H]12 : 1.0

----------
- Test system: HOP-92 NSCLC
- Test name: NCI-60 one-dose screen, 48 h (100 = growth as untreated, 0 = no growth, -100 = all killed)
- Measurement conditions: 10 µM unless noted
About 83,000 compounds went through this panel and 20% of them were active in at least one assay; those are over-represented in the sample as a whole.
Recorded growth, one value per entry.
Please state the figure in %; there is no need to write the unit.

Molecule	Units text	Test result
O=C1Nc2ccccc2/C1=C/c1ccc(OCC(=O)c2ccccc2)cc1	%	97.1
O=C(CCCCCC/C=C\c1csc(Br)n1)NO	%	102
Nc1ccc(Nc2ncnc3sc4c(c23)CCN(Cc2ccccc2)C4)cc1	%	92.2

// map CC(Nc1c(C#N)cnc2ccc(-c3cncc(-c4n[nH]c(=O)o4)c3)cc12)c1ccccc1 (stereo not given) to recorded growth (system: HOP-92 NSCLC) -20.9

Report growth for CC(=C(c1ccc(OCCCN(C)C)cc1)c1ccc(OCCCN(C)C)cc1)c1ccc(Cl)cc1 tested on HOP-92 NSCLC. 77.9

Which growth is reported with HOP-92 NSCLC for this entry: O=C(NNc1nc2cc(F)cc(F)c2n2cccc12)c1cccnn1 ? 75.4

Request - read-out growth | tested on HOP-92 NSCLC | molecule CN(C)CCNc1ccc2ncc(C#Cc3cncc(C(=O)Nc4ccc(CN5CCN(C)CC5)c(C(F)(F)F)c4)c3)n2n1 -4.93

Lab note: need growth with HOP-92 NSCLC for entry O=C(CSc1nnc(-c2ccc(Cl)cc2)n1-c1ccccc1)Nc1cccc(F)c1 , please look it up. 57.8

// lookup growth | system=HOP-92 NSCLC | key= COc1ccccc1N1CCN(C2=C(Cl)C(=O)c3ncccc3C2=O)CC1 135

Please tell me: growth of CCc1cccc2c3c(sc12)C(c1ccc(F)cc1)C(C#N)=C(/N=C/c1ccc(Cl)cc1)O3 (stereo not given) , system HOP-92 NSCLC? 66.6

Identify the measured growth of Cn1c(SCC(=O)c2ccc(Br)cc2)nc2ccccc2c1=O for HOP-92 NSCLC. 91.3

----------
- Tested on: SK-MEL-2 melanoma
- Test name: NCI-60 one-dose screen, 48 h
- Measurement conditions: 10 µM unless noted
Compounds without any hit were thinned out: in the full panel of roughly 83,000, 20% have a hit. Calls of active or inactive are those of the source. Rule for the calls: active = growth percent below 10; inactive = the rest.
Respond with a class label; see active, inactive

Compound	Target or system	Assigned class
NS(=O)(=O)c1ccc(CCn2c(-c3ccc(C(=O)O)cc3)nc(-c3ccccc3)c2-c2ccccc2)cc1	SK-MEL-2 melanoma	inactive
O=c1c2cc(-c3ccc(F)cc3F)ccc2n(Nc2ccccc2)c(=O)n1-c1cccc(C(F)(F)F)c1	SK-MEL-2 melanoma	active
O=S(=O)(NCCCNc1nccc(-c2[nH]c(-c3ccccc3)nc2-c2ccc(F)c(O)c2)n1)c1cccc(F)c1	SK-MEL-2 melanoma	inactive
O=C(N/N=C\c1ccc(F)cc1)c1ccc2nc(-c3ccc(Br)cc3)[nH]c2c1	SK-MEL-2 melanoma	inactive
CC(Nc1ncnc2ccc(-c3cnc(N)nc3)cc12)c1ccccc1 (configuration not stated)	SK-MEL-2 melanoma	inactive

Now let's try a different one.
Could you please tell me the result logged for CCOC(=O)C1=C(C)NC(C)=C(C(=O)OC(C)C)C1c1cccc(C#N)c1 (configuration not stated) in this assay? inactive
